Origin of values: patent EP1910527B1

System: M-1-P-producing enzyme
Assay: Maltose transfer reaction without phosphate, HPLC analysis of products
Type: biochemical, Corynebacterium glutamicum JCM1321
Conditions: 2.0% substrate, 0.16 U/mL enzyme, one hour at 37°C
# Product (Peak area x 10^6): Glucose values compiled below

Below, 5 molecules whose answers are already recorded.
molecule	value_observed
OC[C@H]1O[C@H](O[C@H]2[C@H](O)[C@@H](O)C(O)O[C@@H]2CO)[C@H](O)[C@@H](O)[C@@H]1O (mixture of isomers)	0.19 x 10^6
OC[C@H]1O[C@H](O[C@H]2[C@H](O)[C@@H](O)[C@@H](O[C@H]3[C@H](O)[C@@H](O)[C@@H](O[C@H]4[C@H](O)[C@@H](O)[C@@H](O[C@H]5[C@H](O)[C@@H](O)[C@@H](O[C@H]6[C@H](O)[C@@H](O)[C@@H](O[C@H]7[C@H](O)[C@@H](O)C(O)O[C@@H]7CO)O[C@@H]6CO)O[C@@H]5CO)O[C@@H]4CO)O[C@@H]3CO)O[C@@H]2CO)[C@H](O)[C@@H](O)[C@@H]1O (stereo partly drawn)	0.11 x 10^6
OC[C@H]1O[C@H](O[C@H]2[C@H](O)[C@@H](O)[C@@H](O[C@H]3[C@H](O)[C@@H](O)[C@@H](O[C@H]4[C@H](O)[C@@H](O)C(O)O[C@@H]4CO)O[C@@H]3CO)O[C@@H]2CO)[C@H](O)[C@@H](O)[C@@H]1O (stereo partly drawn)	0.19 x 10^6
OC[C@H]1OC(O)[C@H](O)[C@@H](O)[C@@H]1O (stereo partly drawn)	65.97 x 10^6
OC[C@H]1O[C@H](O[C@H]2[C@H](O)[C@@H](O)[C@@H](O[C@H]3[C@H](O)[C@@H](O)[C@@H](O[C@H]4[C@H](O)[C@@H](O)[C@@H](O[C@H]5[C@H](O)[C@@H](O)C(O)O[C@@H]5CO)O[C@@H]4CO)O[C@@H]3CO)O[C@@H]2CO)[C@H](O)[C@@H](O)[C@@H]1O (stereo partly drawn)	0.09 x 10^6

Field: next molecule
Which value of Product (Peak area x 10^6): Glucose has been reported for OC[C@H]1O[C@H](O[C@H]2[C@H](O)[C@@H](O)[C@@H](O[C@H]3[C@H](O)[C@@H](O)C(O)O[C@@H]3CO)O[C@@H]2CO)[C@H](O)[C@@H](O)[C@@H]1O (stereo partly drawn) in the records?
0.52 x 10^6
